- Test system: Septoria tritici
- assayMethodText: Test A: wheat leaf blotch, preventive spray on wheat seedlings
- Type: in vivo
- experimentalParameters: 50 ppm, 100 = 100% disease control, 0 = no control relative to controls
Listing of entries alongside the reported Test A disease control rating (wheat leaf blotch).
The response must be a number in % with no trailing unit.

- compound: "COc1ccc(-c2c(C)nn(C)c2Nc2ccc(Cl)cc2[N+](=O)[O-])c(Cl)c1 [Compound 74]"
  unitsSymbol: "%"
  endpointValue: 99
- compound: "Cc1nn(C)c(Nc2cc(F)c(F)cc2[N+](=O)[O-])c1-c1ccc(F)cc1Cl [Compound 32]"
  unitsSymbol: "%"
  endpointValue: 93

Sure, the documented Test A disease control rating (wheat leaf blotch) for CCc1nn(C)c(Nc2ccc(OC)cc2[N+](=O)[O-])c1-c1ccc(F)cc1F [Compound 45] is 100
